Test system: NCI-H1975 EGFR D770_N771insSVD
Listed here are molecules together with their documented GI50.
Report the value in nM with no unit label.

Example entries begin here.
INSERT INTO assay_data (cpd_smiles, property_label, recorded_measurement) VALUES
  ('CCOc1cc2ncc(C#N)c(Nc3ccc(OCc4ccccn4)c(Cl)c3)c2cc1NC(=O)/C=C/CN(C)C', 'GI50', 130),
  ('C=CC(=O)Nc1cc(Nc2nccc(-c3cn(C)c4ccccc34)n2)c(OC)cc1N(C)CCN(C)C', 'GI50', 154),
  ('C=CC(=O)N1C[C@H](n2c(C#CC3CC3)c(C(=O)N[C@H](C)c3ccccc3)c3c(N)ncnc32)C[C@@H]1C', 'GI50', 8.71);

Okay, next one:
Q: Fill: GI50 (NCI-H1975 EGFR D770_N771insSVD) for this molecule `C=CC(=O)N1CCC(Oc2cc3c(Nc4ccc(Cl)c(Cl)c4F)ncnc3cc2OC)CC1`
Result: 3.87
